Recorded efflux ratio at 10 μM values for a group of compounds are listed next.
- Protocol Summary: Drug transport across human Caco-2 cells
- Assay type: in vitro ADME
- Particulars: human, Caco-2, pH 7.2, PEBA/PEAB, Caco-2

Compound	Result
N#Cc1ccc(C2C3=C(CCC3=O)N(c3cccc(C(F)(F)F)c3)C(=O)N2C(=O)N[C@H]2CCC[C@@H]2O)cc1 (stereo partly drawn)	2
CCS(=O)(=O)c1cc(C#N)ccc1[C@H]1NC(=O)N(c2cccc(C(F)(F)F)c2)C2=C1C(=O)CC2 [Example 14A]	9.2
CN1C(=O)N(c2cccc(C(F)F)c2)C2=C(C(=O)CC2)[C@H]1c1ccc(C#N)cc1 [Example 26A]	1.1
CS(=O)(=O)N1C(=O)N(c2cccc(C(F)(F)F)c2)C2=C(C(=O)CC2)C1c1ccc(C#N)cc1Cl (stereo not drawn)	1.2

Need efflux ratio at 10 μM of CC(C)(O)CNC(=O)N1C(=O)N(c2cccc(C(F)F)c2)C2=C(C(=O)CC2)C1c1ccc(C#N)cc1 (stereo not drawn) , thanks. 14.1

Need efflux ratio at 10 μM of CCOC(=O)N1C(=O)N(c2cccc(C(F)(F)F)c2)C2=C(C(=O)CC2)C1c1ccc(C#N)cc1 (stereo not drawn) , thanks. 0.9

Would you kindly share the measured efflux ratio at 10 μM for "CN1C(=O)N(c2cccc(C(F)(F)F)c2)C2=C(C(=O)CC2)[C@H]1c1ccc(C#N)cc1S(C)(=O)=O" ? 1.3

Please look up its efflux ratio at 10 μM: CNC(=O)N1C(=O)N(c2cccc(C(F)(F)F)c2)C2=C(C(=O)CC2)C1c1ccc(C#N)cn1 (stereo not drawn) 1

What efflux ratio at 10 μM value was documented for this compound, "CS(=O)(=O)c1cc(C#N)ccc1[C@@H]1C2=C(CCC2=O)N(c2cccc(C(F)(F)F)c2)C(=O)N1CC#N" ? 9.1

Item under review: CN1C(=O)N(c2cccc(C(F)(F)F)c2)C2=C(C(=O)CC2)C1c1ccc(C#N)cn1 (stereo not drawn) . Reported efflux ratio at 10 μM? 0.9

Look up efflux ratio at 10 μM: "CS(=O)(=O)N1C(=O)N(c2cccc(C(F)(F)F)c2)C2=C(C(=O)CC2)[C@H]1c1ccc(C#N)cc1" 1.7

Consider the compound CCN1C(=O)N(c2cccc(C(F)(F)F)c2)C2=C(C(=O)CC2)C1c1ccc(C#N)cc1S(C)(=O)=O (stereo not drawn) and give its measured efflux ratio at 10 μM. 1.4

Can you share its efflux ratio at 10 μM? I mean this compound: N#CCN1C(=O)N(c2cccc(C(F)(F)F)c2)C2=C(C(=O)CC2)C1c1ccc(C#N)cc1 (stereo not drawn) 1.5

Dear colleague, I am looking for the recorded efflux ratio at 10 μM of the following compound: CNC(=O)N1C(=O)N(c2cccc(C(F)(F)F)c2)C2=C(C(=O)CC2)[C@H]1c1ccc(C#N)cc1F [Example 49A] 0.8

Quick one: efflux ratio at 10 μM of "N#Cc1ccc([C@@H]2C3=C(CCC3=O)N(c3cccc(C(F)(F)F)c3)C(=O)N2C(=O)N[C@H]2CCC[C@@H]2O)cc1" ? 2

###

- Subject Of Test: Human neutrophil elastase (Homo sapiens (Human), UniProt P08246)
- Sequence (P08246 30-247): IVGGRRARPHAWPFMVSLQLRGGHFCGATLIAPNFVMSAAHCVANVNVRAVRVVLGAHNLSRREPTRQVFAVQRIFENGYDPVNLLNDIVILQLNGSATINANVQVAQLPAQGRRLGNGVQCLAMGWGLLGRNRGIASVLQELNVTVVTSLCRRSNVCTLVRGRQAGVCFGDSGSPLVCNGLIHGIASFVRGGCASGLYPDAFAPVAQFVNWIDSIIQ
- Protocol Summary: Human Neutrophil Elastase Assay
- Type: biochemical
- Particulars: IC50, human neutrophil elastase, substrate MeOSuc-Ala-Ala-Pro-Val-AMC 250 μM, pH 7.5
Reported Endpoint: IC50

Compound	Result
CN1C(=O)N(c2cccc(C(F)(F)F)c2)C2=C(C(=O)CC2)C1c1ccc(C#N)cc1[S+](C)[O-] (single isomer, unassigned) [Example 30A]	1.3 nM

Fill in: IC50 of CN1C(=O)N(c2cccc(C(F)(F)F)c2)C2=C(C(=O)CC2)C1c1ccc(C#N)cc1[S+](C)[O-] (single isomer, unassigned) [Example 30B] is ___ 2 nM

###

- Protocol Summary: Metabolic stability with human liver microsomes
- Type: in vitro ADME
- Particulars: human, microsomes, pH 7.6
Reported Endpoint: half-life at 1 μM

Sample answers from the record:
Compound	Reported Endpoint	Result
CC(C)(O)CNC(=O)N1C(=O)N(c2cccc(C(F)F)c2)C2=C(C(=O)CC2)C1c1ccc(C#N)cc1 (stereo not shown)	half-life at 1 μM	> 2.17 h
COC(=O)N1C(=O)N(c2cccc(C(F)(F)F)c2)C2=C(C(=O)CC2)[C@H]1c1ccc(C#N)cc1S(C)(=O)=O	half-life at 1 μM	> 2.17 h
CC(C)(O)CNC(=O)N1C(=O)N(c2ccnc(C(F)(F)F)c2)C2=C(C(=O)CC2)C1c1ccc(C#N)cc1 (stereo not shown)	half-life at 1 μM	> 2.17 h

Now take the following compound into account.
So what's the measured half-life at 1 μM for this one? "CC(C)NC(=O)N1C(=O)N(c2cccc(C(F)(F)F)c2)C2=C(C(=O)CC2)[C@H]1c1ccc(C#N)cc1S(C)(=O)=O" > 2.17 h

###

- Protocol Summary: Drug transport across human Caco-2 cells
- Assay type: in vitro ADME
- Particulars: human, Caco-2, pH 7.2, Caco-2 monolayers, basal-to-apical, pH 7.2, 37° C.; read-out: PEBA
Reported Endpoint: Papp B→A at 10 µM (×10⁻⁶ cm/s)
Number only, in ×10⁻⁶ cm/s; omit the unit.

Some solved cases for reference:
Compound	Numeric Readout
CN1C(=O)N(c2cccc(C(F)(F)F)c2)C2=C(C(=O)CC2)[C@H]1c1ccc(C#N)cc1S(C)(=O)=O [Example 25]	74
CS(=O)(=O)c1cc(C#N)ccc1[C@@H]1C2=C(CCC2=O)N(c2cccc(C(F)(F)F)c2)C(=O)N1CC#N [Example 23]	93.5
CC(C)(O)CNC(=O)N1C(=O)N(c2cccc(C(F)F)c2)C2=C(C(=O)CC2)C1c1ccc(C#N)cc1 (stereo not shown) [Example 52.5]	62.7
CN1C(=O)N(c2cccc(C(F)(F)F)c2)C2=C(C(=O)CC2)[C@H]1c1ccc(C#N)cc1 [Example 2A]	69
CNC(=O)N1C(=O)N(c2cccc(C(F)(F)F)c2)C2=C(C(=O)CC2)C1c1ccc(C#N)cn1 (stereo not shown) [Example 50.1]	66.1

Request the reported Papp B→A at 10 µM associated with CCN1C(=O)N(c2cccc(C(F)(F)F)c2)C2=C(C(=O)CC2)C1c1ccc(C#N)cc1S(C)(=O)=O (stereo not shown) [Example 24] 85.6

Reported Papp B→A at 10 µM, compound CC(C)NC(=O)N1C(=O)N(c2cccc(C(F)F)c2)C2=C(C(=O)CC2)C1c1ccc(C#N)cc1S(C)(=O)=O (stereo not shown) [Example 53.4] : ____ 94.4

###

Overview of reported EC50 across a group of compounds:
- Subject Of Test: neutrophil elastase in human plasma (Homo sapiens (Human), UniProt P08246)
- Sequence (P08246 30-247): as above
- Protocol Summary: Neutrophil elastase inhibitory activity in human plasma (zymosan-stimulated blood)
- Assay type: biochemical
- Particulars: neutrophil elastase enriched human plasma from zymosan-stimulated blood; read-out: EC50
# unit: nM | format: bare number

Compound	Subject Of Test	Reported Endpoint	Unit	Numeric Readout
CNC(=O)N1C(=O)N(c2cccc(C(F)(F)F)c2)C2=C(C(=O)CC2)C1c1ccc(C#N)cn1 (centres unmarked)	neutrophil elastase in human plasma (Homo sapiens (Human), UniProt P08246)	EC50	nM	16
CC(C)(O)CNC(=O)N1C(=O)N(c2ccnc(C(F)(F)F)c2)C2=C(C(=O)CC2)C1c1ccc(C#N)cc1 (centres unmarked)	neutrophil elastase in human plasma (Homo sapiens (Human), UniProt P08246)	EC50	nM	3
CN1C(=O)N(c2cccc(C(F)(F)F)c2)C2=C(C(=O)CC2)C1c1ccc(C#N)cn1 (centres unmarked)	neutrophil elastase in human plasma (Homo sapiens (Human), UniProt P08246)	EC50	nM	13

Item N#CCN1C(=O)N(c2cccc(C(F)(F)F)c2)C2=C(C(=O)CC2)C1c1ccc(C#N)cc1 (centres unmarked) has what recorded EC50? 23

Can you look up the measured EC50 of CCS(=O)(=O)c1cc(C#N)ccc1[C@H]1NC(=O)N(c2cccc(C(F)(F)F)c2)C2=C1C(=O)CC2 [Example 14A] for me? 1

I'd like to know its EC50. The compound in question is CS(=O)(=O)c1cc(C#N)ccc1C1C2=C(CCC2=O)N(c2cccc(C(F)(F)F)c2)C(=O)N1CC(=O)O (centres unmarked) 2

Query (compound): CC(C)(O)CNC(=O)N1C(=O)N(c2cccc(C(F)F)c2)C2=C(C(=O)CC2)C1c1ccc(C#N)cc1 (centres unmarked) ; field requested: EC50 1

Which measured EC50 value corresponds to CN1C(=O)N(c2cccc(C(F)F)c2)C2=C(C(=O)CC2)[C@H]1c1ccc(C#N)cc1 [Example 26A] ? 2

Name the reported EC50 value associated with the compound CS(=O)(=O)N1C(=O)N(c2cccc(C(F)(F)F)c2)C2=C(C(=O)CC2)C1c1ccc(C#N)cc1Cl (centres unmarked) 17

###

- Protocol Summary: Aqueous solubility
- Type: physicochemical
- Particulars: McIlvaine buffer pH 6.8, 2.5% DMSO, 24 h shaking
Entries are sorted into classes by Aqueous solubility as follows: 1: < 60 µg/mL; 2: ≥ 60 µg/mL and < 90 µg/mL; 3: ≥ 90 µg/mL

Compound	Answer Label
CC(C)(O)CCNC(=O)N1C(=O)N(c2cccc(C(F)(F)F)c2)C2=C(C(=O)CC2)C1c1ccc(C#N)cc1 (stereo not shown)	1
CN(C)CCNC(=O)N1C(=O)N(c2cccc(C(F)(F)F)c2)C2=C(C(=O)CC2)C1c1ccc(C#N)cc1 (stereo not shown)	3
C[S+]([O-])CCNC(=O)N1C(=O)N(c2cccc(C(F)(F)F)c2)C2=C(C(=O)CC2)C1c1ccc(C#N)cc1 (stereo not shown)	3
N#Cc1ccc(C2C3=C(CCC3=O)N(c3cccc(C(F)(F)F)c3)C(=O)N2C(=O)NCCCO)cc1 (stereo not shown)	2
CN1C(=O)N(c2cccc(C(F)(F)F)c2)C2=C(C(=O)CC2)C1c1ccc(C#N)cc1[S+](C)[O-] (single isomer, unassigned) [Example 30A]	1
CS(=O)(=O)c1cc(C#N)ccc1C1C2=C(CCC2=O)N(c2cccc(C(F)(F)F)c2)C(=O)N1CCCO (stereo not shown)	2
N#Cc1ccc(C2C3=C(CCC3=O)N(c3cccc(C(F)(F)F)c3)C(=O)N2CC(=O)N2CCC2)cc1 (stereo not shown)	3
CN1CC(NC(=O)N2C(=O)N(c3cccc(C(F)(F)F)c3)C3=C(C(=O)CC3)C2c2ccc(C#N)cc2)CC1=O (stereo not shown)	3

Hello team, could you let me know which band the following compound falls into: CN(C)C(=O)CN1C(=O)N(c2cccc(C(F)(F)F)c2)C2=C(C(=O)CC2)C1c1ccc(C#N)cc1 (stereo not shown) 2

Which class holds CCNC(=O)N1C(=O)N(c2ccnc(C(F)(F)F)c2)C2=C(C(=O)CC2)C1c1ccc(C#N)cc1 (racemic) ? 1

Returns: class label. Input: "N#Cc1ccc([C@@H]2C3=C(CCC3=O)N(c3cccc(C(F)(F)F)c3)C(=O)N2C(=O)NC2CCS(=O)(=O)CC2)cc1" 1

Please report the category associated with N#Cc1ccc(C2C3=C(CCC3=O)N(c3cccc(C(F)(F)F)c3)C(=O)N2C(=O)NC2(CO)CC2)cc1 (stereo not shown) , nothing else. 2

Reference for the values: patent US9290459B1
